The reader will find reported melting point values listed item by item below.

Solved entries:
- Molecule: "CSc1c(C(Cc2ccccc2)C(=O)O)ccc2c3ccccc3n(Cc3ccccc3)c12 (centres undefined)"
  Experimental readout: "melting point"
  Assay result: "154 to 156 °C"
- Molecule: "Brc1ccccc1C1=NOC2(N3CCCC3)CCCCC12 (centres undefined)"
  Experimental readout: "melting point"
  Assay result: "134 °C"
- Molecule: "Cc1c(C)c2c(c(C)c1NC(=O)CC(C)(C)C)C(c1ccc(C(C)C)c(OCCO)c1)CO2 (centres undefined)"
  Experimental readout: "melting point"
  Assay result: "155 to 156 °C"
- Molecule: "CCOC(=O)C(=O)CC(=O)c1cn(Cc2ccc(F)cc2)c2cc(Cl)c(Cl)cc2c1=O"
  Experimental readout: "melting point"
  Assay result: "144 to 145 °C"
- Molecule: "CCCNc1c2c(nc3ccccc13)CCCC2O (centres undefined)"
  Experimental readout: "melting point"
  Assay result: "164 °C"

stdin: # melting point lookup, item CC(C)(C)OC(=O)NCCNC(=O)c1ncccc1Oc1ccccc1Cl
stdout: 86 to 87 °C

stdin: # melting point lookup, item O=C(ON=C1C(=O)c2ccccc2-c2ccccc21)c1ccccc1
stdout: 148 to 149 °C

stdin: # melting point lookup, item Cc1nc(-c2ccc(C(F)(F)F)cc2)oc1COc1ccc(CCC(=O)O)cc1
stdout: 98 to 100 °C

stdin: # melting point lookup, item COC(=O)c1coc(-c2ccc(NS(=O)(=O)c3sc4ccc(F)cc4c3C)c(S(C)(=O)=O)c2)n1
stdout: 290 to 292 °C

stdin: # melting point lookup, item O=C1c2cc(Cl)ccc2-n2cccc21
stdout: 92 °C

stdin: # melting point lookup, item CCc1nn(C2CCCC2)c2cc(C(=O)N(C)c3c(Cl)cncc3Cl)ccc12
stdout: 118 to 119 °C

stdin: # melting point lookup, item CC(C)(C)c1cc(Cc2nc3ccccc3o2)cc(C(C)(C)C)c1O
stdout: 94 to 96 °C

* * *

The reader will find reported melting point values listed item by item below.

Solved entries:
- Compound: "Cc1oc(-c2ccccc2)nc1CN(C)Cc1ccc(C[C@@H](C(=O)O)n2cccc2)cc1"
  Experimental readout: "melting point"
  Assay result: "133 to 135 °C"
- Compound: "Cc1c(F)c(N)cc(Br)c1F"
  Experimental readout: "melting point"
  Assay result: "68 to 68.5 °C"
- Compound: "COc1cc2c(cc1OC)C1=C(CC2)NC(=O)CC1"
  Experimental readout: "melting point"
  Assay result: "270 to 271 °C"
- Compound: "Cc1nc(Cl)c2c(-c3ccc([N+](=O)[O-])o3)nn(C)c2n1"
  Experimental readout: "melting point"
  Assay result: "212 °C"

Then this compound:
stdin: # melting point lookup, item Cc1noc(-c2cccc(CN3CCN(c4ccc(NC(=O)OC(C)(C)C)cc4)CC3)c2)n1
stdout: 159 to 161 °C

* * *

The reader will find reported melting point values listed item by item below.

stdin: # melting point lookup, item O=C(CBr)Nc1cc(F)c(F)cc1C(=O)O
stdout: 177 to 180 °C

stdin: # melting point lookup, item Cc1ccc(-n2nc(C(C)(C)C)cc2NC(=O)Nc2ccc(OCCN3CCS(=O)CC3)c3ccccc23)cc1
stdout: 205 to 207 °C

stdin: # melting point lookup, item Cc1cn(Nc2ccncc2)c2ccc(OCc3ccccc3)cc12
stdout: 168 to 170 °C

stdin: # melting point lookup, item COc1ccc(C(=O)c2[nH]c(=S)[nH]c2C)cc1
stdout: 200 °C

stdin: # melting point lookup, item COC=C(C(=O)OC)c1ccccc1CCc1ccccc1
stdout: 52 to 54 °C
